Protocol Text: Cytotoxicity against human HFF-1 cells assessed as reduction in cell viability incubated for 120 hrs by MTS assay
Format: cell-based
Attribute Measured: CC50 at 120 h

Below are worked cases with known answers.
Compound	CC50 at 120 h
C=C(c1nc(-c2ccccc2)no1)C(O)c1ccc(Br)cc1 (stereo not given)	> 64 µM
C=C(c1nc(-c2ccc(OC)cc2)no1)C(O)c1ccccc1 (stereo not given)	55.1 µM
C=C(c1nc(-c2ccccc2)no1)C1(O)C(=O)N(c2ccccc2)c2ccccc21 (stereo not given)	27.9 µM
C=C(c1nc(-c2ccccc2)no1)C(O)c1ccccc1 (stereo not given)	> 64 µM

For every record below, what is its CC50 at 120 h?
1. C=C(c1nc(-c2ccccc2)no1)C(O)c1ccc(S(C)(=O)=O)cc1 (stereo not given)
2. C=C(c1nc(-c2ccccc2)no1)C(O)CCCC (stereo not given)
3. C=C(c1nc(-c2ccccc2)no1)C1(O)C(=O)N(CC)c2ccc(OC)cc21 (stereo not given)
4. C=C(c1nc(-c2ccccc2)no1)C(O)c1ccc([N+](=O)[O-])cc1 (stereo not given)
5. C=C(c1nc(-c2ccccc2)no1)C1(O)C(=O)N(Cc2ccccc2)c2ccccc21 (stereo not given)
6. C=C(c1nc(-c2ccccc2)no1)C(O)c1ccc(OC)cc1 (stereo not given)
7. C=C(c1nc(-c2ccc(OC)cc2)no1)C(O)c1ccc(C#N)cc1 (stereo not given)
8. C=Cc1nc(-c2ccc(OC)cc2)no1

["> 64 µM", "> 64 µM", "> 64 µM", "> 64 µM", "> 64 µM", "> 64 µM", "> 64 µM", "> 64 µM"]

For every record below, what is its CC50 at 120 h?
1. C=C(c1nc(-c2ccc(OC)cc2)no1)C(O)c1ccccc1[N+](=O)[O-] (stereo not given)
2. C=C(c1nc(-c2ccc([N+](=O)[O-])cc2)no1)C(O)c1nccs1 (stereo not given)
3. C=C(c1nc(-c2ccccc2)no1)C(O)/C=C/c1ccccc1 (stereo not given)

1. 42.2 µM
2. > 64 µM
3. > 64 µM
